- test protocol: AUC (0 to infinity) in monkey at 0.1 mg/kg, po
- Type: ADME, organism-based, Macaca mulatta
- Set-up: time infinity, dose 0.1 mg/kg, route oral
- protocol conditions: rhesus monkey, plasma
measure name: AUC(0-inf)
Enter the number, and then the unit.

Which AUC(0-inf) is listed for Br.Cc1cc(N2CCN([C@@H]3CN[C@H](C(=O)N4CCSC4)C3)CC2)n(-c2ccccc2)n1 ?
295 ng·h/mL

---

- test protocol: Terminal half life in rat at 0.1 mg/kg, po
- Type: ADME, organism-based
- Set-up: dose 0.1 mg/kg, route oral
- protocol conditions: in vivo, read-out: beta t1/2 (converted)
measure name: half-life (h)
Report only the number, with the unit h understood.

GET /values?readout=half-life&item= Br.Cc1cc(N2CCN([C@@H]3CN[C@H](C(=O)N4CCSC4)C3)CC2)n(-c2ccccc2)n1
15.8

---

- test target: Dipeptidyl peptidase 4 (Rattus norvegicus, UniProt P14740)
- Sequence (P14740 whole entry): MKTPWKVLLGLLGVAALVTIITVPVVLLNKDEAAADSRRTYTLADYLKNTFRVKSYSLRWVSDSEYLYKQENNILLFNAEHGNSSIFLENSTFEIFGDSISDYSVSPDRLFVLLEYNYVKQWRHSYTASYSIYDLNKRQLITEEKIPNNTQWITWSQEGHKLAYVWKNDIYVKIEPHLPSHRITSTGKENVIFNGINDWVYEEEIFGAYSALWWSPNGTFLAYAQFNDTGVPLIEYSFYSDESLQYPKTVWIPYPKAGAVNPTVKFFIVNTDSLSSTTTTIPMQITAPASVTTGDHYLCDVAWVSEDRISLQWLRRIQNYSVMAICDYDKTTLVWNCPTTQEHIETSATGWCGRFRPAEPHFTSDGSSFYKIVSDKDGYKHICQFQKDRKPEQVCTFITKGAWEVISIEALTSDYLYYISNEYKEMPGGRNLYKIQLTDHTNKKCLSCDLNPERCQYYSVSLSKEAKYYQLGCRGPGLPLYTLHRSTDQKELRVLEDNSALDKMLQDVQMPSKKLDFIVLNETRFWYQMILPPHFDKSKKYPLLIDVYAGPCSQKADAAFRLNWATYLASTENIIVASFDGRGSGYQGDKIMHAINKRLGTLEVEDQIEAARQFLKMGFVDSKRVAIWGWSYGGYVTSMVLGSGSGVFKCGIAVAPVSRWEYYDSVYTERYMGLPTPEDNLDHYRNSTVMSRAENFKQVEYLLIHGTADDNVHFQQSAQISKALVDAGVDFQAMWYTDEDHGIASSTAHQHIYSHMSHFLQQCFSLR
measure name: IC50
I'd appreciate it if you included the unit after the number.

Data request, read-out IC50, for Cc1cc(N2CCN([C@@H]3CN[C@H](C(=O)N4CCSC4)C3)CC2)n(-c2ccc(C#N)cc2)n1
13 nM

What do you get for O=C([C@@H]1C[C@H](N2CCN(c3ccnn3-c3ccccc3)CC2)CN1)N1CCSC1 ?
0.69 nM

Can you check Cc1cc(N2CCN([C@@H]3CN[C@H](C(=O)N4CCSC4)C3)CC2)n(-c2cccc(F)c2)n1 next?
0.49 nM

Also, Cc1cc(N2CCN([C@@H]3CN[C@H](C(=O)N4CCSC4)C3)CC2)n(-c2ccncc2)n1 please.
4.7 nM

Repeat with O=C([C@@H]1C[C@H](N2CCC(c3nnnn3-c3ccccc3)CC2)CN1)N1CCSC1
2.9 nM

Same thing, different compound: O=C([C@@H]1C[C@H](N2CCN(c3nnnn3C3CCCCC3)CC2)CN1)N1CCSC1
3.1 nM

Would you kindly repeat that for Cc1cc(N2CCN([C@@H]3CN[C@H](C(=O)N4CCSC4)C3)CC2)n(-c2cccnc2)n1 ?
0.77 nM

Okay, and O=C([C@@H]1C[C@H](N2CCN(c3nnnn3-c3ccccc3)CC2)CN1)N1CCSC1 ?
0.18 nM

// same read-out, input: O=C([C@@H]1C[C@H](N2CCC(c3cc(C(F)(F)F)nn3-c3ccccc3)CC2)CN1)N1CCSC1
2.5 nM

---

- test protocol: Tmax in rat at 0.1 mg/kg, po
- Type: ADME, organism-based
- Design: dose 0.1 mg/kg, route oral
- protocol conditions: in vivo
measure name: Tmax (min)
All answers are understood in min, so give the number only.

Which measured Tmax value corresponds to Br.Cc1cc(N2CCN([C@@H]3CN[C@H](C(=O)N4CCSC4)C3)CC2)n(-c2ccccc2)n1 ?
52.8

---

- test protocol: Oral bioavailability in monkey at 0.3 mg/kg
- Type: ADME, organism-based, Macaca mulatta
- protocol conditions: rhesus monkey, in vivo
measure name: bioavailability (%)
Please respond with the number in % and leave the unit unwritten.

Any idea what its bioavailability is? The compound is Br.Cc1cc(N2CCN([C@@H]3CN[C@H](C(=O)N4CCSC4)C3)CC2)n(-c2ccccc2)n1
57.6

---

- test protocol: Cmax in rat at 0.3 mg/kg, po
- Assay type: ADME, organism-based
- Parameters: dose 0.3 mg/kg, route oral
- protocol conditions: in vivo
measure name: Cmax
I'd appreciate it if you wrote the number followed by its unit.

Entry Br.Cc1cc(N2CCN([C@@H]3CN[C@H](C(=O)N4CCSC4)C3)CC2)n(-c2ccccc2)n1 : reported Cmax = ?
20.6 ng/mL

---

- test protocol: AUC (0 to infinity) in rat at 0.3 mg/kg, po
- Type: ADME, organism-based
- Set-up: time infinity, dose 0.3 mg/kg, route oral
- protocol conditions: plasma
measure name: AUC(0-inf) (ng·h/mL)
Numeric answer only, unit ng·h/mL assumed.

Give its AUC(0-inf) value. Item: Br.Cc1cc(N2CCN([C@@H]3CN[C@H](C(=O)N4CCSC4)C3)CC2)n(-c2ccccc2)n1
202

---

- test protocol: Oral bioavailability in rat at 1 mg/kg
- Assay type: ADME, organism-based
- protocol conditions: in vivo
measure name: bioavailability (%)
# number only, unit % dropped from output

Entry Br.Cc1cc(N2CCN([C@@H]3CN[C@H](C(=O)N4CCSC4)C3)CC2)n(-c2ccccc2)n1 has what bioavailability?
62.9

---

- test protocol: AUC (0 to infinity) in monkey at 1 mg/kg, po
- Type: ADME, organism-based, Macaca mulatta
- Design: time infinity, dose 1 mg/kg, route oral
- protocol conditions: rhesus monkey, plasma
measure name: AUC(0-inf) (ng·h/mL)
Give the number; ng·h/mL is assumed, so skip it.

State the recorded AUC(0-inf) for this entry: Br.Cc1cc(N2CCN([C@@H]3CN[C@H](C(=O)N4CCSC4)C3)CC2)n(-c2ccccc2)n1
1570

---

- test target: Dipeptidyl peptidase 4 (Rattus norvegicus)
Hi there, I'd appreciate the recorded IC50 for every entry that follows.
Give just the number in nM; leave the unit off.

Give the measured IC50 of Cc1cc(N2CCN([C@@H]3CN[C@H](C(=O)N4CCSC4)C3)CC2)n(-c2ccc(F)cc2)n1 .
2.3

Consider next the molecule O=C([C@@H]1C[C@H](N2CCN(c3nccn3-c3ccccc3)CC2)CN1)N1CCSC1 in the same way.
0.19

Try Cc1cc(N2CCN([C@@H]3CN[C@H](C(=O)N4CCSC4)C3)CC2)n(-c2ccc(C#N)cn2)n1 next.
14

Same question for Cc1cc(N2CCN([C@@H]3CN[C@H](C(=O)N4CCSC4)C3)CC2)n(-c2ccc(Cl)cc2)n1 please.
2.9

Same lookup for Cc1cc(N2CCN([C@@H]3CN[C@H](C(=O)N4CCSC4)C3)CC2)n(-c2ccccc2F)n1 , please.
0.53

Try this molecule too: O=C([C@@H]1C[C@H](N2CCN(c3nc(-c4ccccc4)cs3)CC2)CN1)N1CCSC1
5.4

---

- test protocol: Oral bioavailability in monkey at 0.1 mg/kg
- Type: ADME, organism-based, Macaca mulatta
- protocol conditions: rhesus monkey, in vivo
measure name: bioavailability (%)
Write the value in % as a bare number.

Fill in: bioavailability of Br.Cc1cc(N2CCN([C@@H]3CN[C@H](C(=O)N4CCSC4)C3)CC2)n(-c2ccccc2)n1 is ___
83.2

---

- test protocol: Terminal half life in monkey at 1 mg/kg, po
- Assay type: ADME, organism-based, Macaca mulatta
- Design: dose 1 mg/kg, route oral
- protocol conditions: rhesus monkey, in vivo, read-out: beta t1/2 (converted)
measure name: half-life (h)
Please reply with the bare figure in h and do not write the unit itself.

Report half-life for Br.Cc1cc(N2CCN([C@@H]3CN[C@H](C(=O)N4CCSC4)C3)CC2)n(-c2ccccc2)n1 please.
16.1

---

- test protocol: Tmax in rat at 1 mg/kg, po
- Type: ADME, organism-based
- Parameters: dose 1 mg/kg, route oral
- protocol conditions: in vivo
measure name: Tmax (min)
Lab book: enter the figure in min, no units written.

Which value of Tmax has been reported for Br.Cc1cc(N2CCN([C@@H]3CN[C@H](C(=O)N4CCSC4)C3)CC2)n(-c2ccccc2)n1 in the records?
45

---

- test protocol: Terminal half life in monkey at 0.1 mg/kg, po
- Format: ADME, organism-based, Macaca mulatta
- Design: dose 0.1 mg/kg, route oral
- protocol conditions: rhesus monkey, in vivo, read-out: beta t1/2 (converted)
measure name: half-life (h)
Report the figure in h without appending any unit label.

Look up half-life for this compound: Br.Cc1cc(N2CCN([C@@H]3CN[C@H](C(=O)N4CCSC4)C3)CC2)n(-c2ccccc2)n1
18.9

---

- test protocol: Oral bioavailability in rat at 0.1 mg/kg
- Assay type: ADME, organism-based
- protocol conditions: in vivo
measure name: bioavailability (%)
Respond numerically; units are % and should not be typed.

Given the compound Br.Cc1cc(N2CCN([C@@H]3CN[C@H](C(=O)N4CCSC4)C3)CC2)n(-c2ccccc2)n1 , what is its reported bioavailability?
85.9

---

- Species: Rattus norvegicus
- test protocol: animal or person
- Assay type: functional
- protocol conditions: Wistar, Plasma, po, 9 h
measure name: inhibition in vivo at 3 µmol/kg
Note: state the figure and append the unit.

Looking for the measured inhibition in vivo at 3 µmol/kg of O=C([C@@H]1C[C@H](N2CCN(c3ccccn3)CC2)CN1)N1CCSC1 , can you help?
19.7%

Consider next the compound O=C([C@@H]1C[C@H](N2CCN(c3ccnn3-c3ccccc3)CC2)CN1)N1CCSC1 in the same way.
50.8%

Do the same for Cc1cc(N2CCN([C@@H]3CN[C@H](C(=O)N4CCSC4)C3)CC2)n(-c2cccc(F)c2)n1 please
75.1%

Query O=C([C@@H]1C[C@H](N2CCN(c3cc(C(F)(F)F)nn3-c3ccccc3)CC2)CN1)N1CCSC1 next
81.8%

Follow-up item: Cc1cc(N2CCN([C@@H]3CN[C@H](C(=O)N4CCSC4)C3)CC2)n(-c2ccccc2F)n1
34.7%

O=C([C@@H]1C[C@H](N2CCN(c3nnnn3C3CCCCC3)CC2)CN1)N1CCSC1 , same question.
10.5%

Field entry: O=C([C@@H]1C[C@H](N2CCN(c3ccnc4ccccc34)CC2)CN1)N1CCSC1
12.9%

Note, next up: O=C([C@@H]1C[C@H](N2CCN(c3nccn3-c3ccccc3)CC2)CN1)N1CCSC1
58%

Next: Cc1cc(N2CCN([C@@H]3CN[C@H](C(=O)N4CCSC4)C3)CC2)n(-c2cccnc2)n1
40.8%

# iterate: O=C([C@@H]1C[C@H](N2CCN(c3nnnn3-c3ccccc3)CC2)CN1)N1CCSC1
70.7%

Another compound to look at: Cc1cc(N2CCN([C@@H]3CN[C@H](C(=O)N4CCSC4)C3)CC2)n(-c2ccccn2)n1
53.7%

Please give the result for Cc1cc(N2CCN([C@@H]3CN[C@H](C(=O)N4CCSC4)C3)CC2)n(-c2ccccc2)n1 [TENELIGLIPTIN] too.
78.3%
